Property: OD450nm; scope: individual binders
- System Under Test: HRgpA-6H (Porphyromonas gingivalis) (UniProt P28784)
- Test Method Notes: ELISA, Fab FASEBA supernatant on coated HRgpA-6H
Output should be the measured figure followed by the unit it is expressed in.

>  <Binder>
parental mouse (KB001) Fab FASEBA, VL variant L55R/S51G (Fab, V domains shown) VH: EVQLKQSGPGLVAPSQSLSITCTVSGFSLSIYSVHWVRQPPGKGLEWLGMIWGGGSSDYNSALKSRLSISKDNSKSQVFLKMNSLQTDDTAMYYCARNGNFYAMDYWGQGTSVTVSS VL: QIVLTQSPAIMSASLGERVTMTCTASSSVSSSFLHWYQQKPGSSPQLWIYGTSNRASGVPARFSGSGSGTSYSLTISSMEAEDAATYYCHQYHHSPYIYTFGGGTKLEIK

>  <Measure>
OD450nm

>  <Observed Measurement>
0.748 OD450nm

$$$$

parental mouse (KB001) Fab FASEBA, VL variant Y92N (Fab, V domains shown) VH: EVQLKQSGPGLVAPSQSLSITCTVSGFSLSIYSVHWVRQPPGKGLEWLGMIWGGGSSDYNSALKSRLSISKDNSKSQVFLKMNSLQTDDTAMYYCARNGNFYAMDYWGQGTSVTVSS VL: QIVLTQSPAIMSASLGERVTMTCTASSSVSSSFLHWYQQKPGSSPQLWIYSTSNLASGVPARFSGSGSGTSYSLTISSMEAEDAATYYCHQNHHSPYIYTFGGGTKLEIK yielded OD450nm of 0.773 OD450nm

parental mouse (KB001) Fab FASEBA, VL variant S57K (Fab, V domains shown) VH: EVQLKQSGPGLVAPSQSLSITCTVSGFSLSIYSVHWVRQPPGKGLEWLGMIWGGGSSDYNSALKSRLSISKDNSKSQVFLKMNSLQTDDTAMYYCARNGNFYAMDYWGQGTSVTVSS VL: QIVLTQSPAIMSASLGERVTMTCTASSSVSSSFLHWYQQKPGSSPQLWIYSTSNLAKGVPARFSGSGSGTSYSLTISSMEAEDAATYYCHQYHHSPYIYTFGGGTKLEIK yielded OD450nm of 0.712 OD450nm
